# reported Enzyme Activity Endpoint Assay (purified): IgG; entries follow
- assay system: pooled human IgG (human IgG1, 2, 3 and 4)
metric name: Enzyme Activity Endpoint Assay (purified): IgG (ng/µL)

protein	unit descriptor	reading
PRT-509 (protein) MITSVWTKGVTPPTDFRKIVDGNIAYYHAPYKAGQGWYDITKTFNGKDDLLCGAATAGNMLHWWFDQNKEEIEAYLKKHPEKQKIMFGDQELLDVRKVINTKDSQTNSALFNYFKDKAFPNLSARRLGVMPDLVLDMFINGYYLNVYKTQTTDVNRTYQTKDRRGGIFDAVFTRGDQSKLLTERHDFKEKTLKEISDLIKQELTEGKALGLSHTYANVRINHVINLWGADFDSNGNLEAIYVTDSDSNASIGMKKYFVGVNSAGKVAISAKEIKEDNIGAQVLGLFTLSTGQDIWNQTNLEHHHHHH	ng/µL	0
PRT-611 (protein) MQITSVWTKGVTPLTPEQFRYNNEDVIHAPYLAHQGWYDITKAFDGKDNLLCGAATAGNMLHWWFDQNKTEIEAYLSKHPEKQKIIFNNQELFDLKAAIDTKDSQTNSQLFNYFRDKAFPNLSARQLGVMPDLVLDMFINGYYLNVFKTQSTDVNRPYQDKDKRGGIFDAVFTRGDQTTLLTARYDLYNKGLNDISTIIKQELTEGRALALSHTYANVSISHVINLWGADFNAEGNLEAIYVTDSDANASIGMKKYFVGINAHGHVAISAKKIEGENIGAQVLGLFTLSSGKDIWQKLSLEHHHHHH	ng/µL	0
PRT-564 (protein) MANQEIRYSEATPSHITSVWTKGVTPPTQFIQNEDVLHAPYIANQGWYDITKTFNGKDDLLCGAATAGNMLHWWFDQNKTQIENYLKKHPEKQKINFNGEQMFDVKEAIDTKDSQTDSALFSYFKDKAFPYLSTKHLGVFPDHVIDMFINGYRLSLTNHGPTPVKRQTKDPRGGIFDAVFTRGDQSKLLTSRHDFKEKTLNEISQLIKQELTEGKALGLSHTYANVRINHVINLWGADFNAEGNLEAIYVTDSDSNASIGMKKYYVGVNAAGKVAISAKEIEGDNIGAQVLGLFTLSTGQDIWQQTNLEHHHHHH	ng/µL	0
PRT-461 (protein) MVTSVWTKGVTPPTDFRKIVDGNIAYYHAPYKAGQGWYDITKTFNGKDDLLCGAATAGNMLHWWFDQNKDQIERYLKEHPEKQKINFNGEQMFDVKEAIDTKDSQTDSKLFEYFKEKAFPYLSTKHLGVFPDHVLDMFINGYRLSLTNHGPTPVKEGSKDPRGGIFDAVFTRGDQSKLLTSRHDFKEKTLKEISDLIKQELTEGKALGLSHTYANVRINHVINLWGADFDSEGNLKAIYVTDSDSNASIGMKKYFVGVNSAGKVAISAKEIKEDNIGAQVLGLFTLSTGQDIWNQTNLEHHHHHH	ng/µL	154
PRT-681 (protein) MQITSVWTKGVTPLTPEQFRYNNEDVIHAPYLAHQGWYDITKAFDGKDNLLCGAATAGNMLHWWFDQNKTEIEAYLSKYPEKQKIIFNNQELFDLRAAINTKDSQTNSQLFNYFRDKAFPNLSARQLGVMPDLVLDMFINGYYLNVFKTQSTDVNRPYQDKDKRGGIFDAVFTRGDQTTLLTARHDLKNKGLNDISTIIKQELTEGRALALSHTYANVSISHVINLWGADFNAEGNLEAIYVTDSDANASIGMKKYYVGINAHGHVAISAKKIEGENIGAQVLGLFTLSSGKEIWQKLSLEHHHHHH	ng/µL	0
PRT-420 (protein) MTITSVWTKGVTPPTPEDFRYNNEDVLHAPYVANQGWYDITKTFDGKDNLLCGAATAGNMLHWWFDQNKEEIERYLKKHPEKQKIIFNNQEWFDVKAAIDTKDSQTNSKLFNYFRDKAFPNLSARQLGVMPDLVLDMFINGYYLNLGKTQSTDVNRPYQDKDKRGGIFDAVFTRGDQTTLLTARHDLKNKGLNEISDLIKQELTEGKALALSHTYANVRINHVINLWGADFDAEGNLIAIYVTDSDANASIGMKKYFVGVNANGKVAISAKKIEGDNIGAQVLGLFTLSTGQDIWQKLS	ng/µL	125
PRT-415 (protein) MTITSVWTKGVTPPTPEDFRYNNEDVLHAPYVANQGWYDITKTFDGKDNLLCGAATAGNMLHWWFDQNKEEIERYLKKHPEKQKIIFNNQELFDVKAAIDTKDSQTNSKLFNYFLDKAFPNLSARQLGVMPDLVLDMFINGYYLNLGKTQSTDVNRPYQDKDKRGGIFDAVFTRGDQTTLLTARHDLKNKGLNEISDLIKQELTEGKALALSHTYANVRINHVINLWGADFDAEGNLIAIYVTDSDANASIGMKKYFVGVNANGKVAISAKKIEGDNIGAQVLGLFTLSTGQDIWQKLS	ng/µL	164
PRT-694 (protein) MTITSVWTKGVTPPTPEDFRYNNEDVLHAPYVANQGWYDITKTFDGKDNLLCGAATAGNMLHWWFDQNKEEIERYLKKYPEKQKIIFNNQELFDVRAAINTKDSQTNSKLFNYFRDKAFPNLSARQLGVMPDLVLDMFINGYYLNLGKTQSTDVNRPYQDKDKRGGIFDAVFNRGDQTTLLTARHDLKNKGLNEISDLIKQELSSGKALALSHTYANVRINHVINLWGADFDAEGNLIAIYVTDSDANSNIGMKKYKVGVNANGKVAISAKKIEGDNIGAQVLGLFTLSTGQDIWQKLSLEHHHHHH	ng/µL	1030
